test system: HT-29 [B-Raf V600E mutant]; experiment: Anti-proliferative activity, SRB assay, 72 hours; format: cell-based; details: Homo sapiens, read-out: CELLULAR IC50 [μM] HT-29 [B-Raf V600E mutant]
measured-parameter: IC50

Before answering, review these 6 worked examples.
>>> measured_value("COn1c(=O)c(-c2cc(NC(=O)c3cc(Cl)nc(NCc4ccc(N5CCN(C)CC5)cc4)c3)ccc2Cl)cc2cnc(NCCN(C)C)nc21")
"< 5 µM"
>>> measured_value("COn1c(=O)c(-c2ccc(NC(=O)c3ccc(Cl)c(C(F)(F)F)c3)cc2Cl)cc2cnc(NCCN(C)C)nc21")
"< 5 µM"
>>> measured_value("COn1c(=O)c(-c2cc(NC(=O)Nc3ccc(C(C)(C)C)cc3)ccc2Cl)cc2cnc(NCCN(C)C)nc21")
"< 5 µM"
>>> measured_value("COn1c(=O)c(-c2cc(NC(=O)c3cccc(C(F)(F)F)c3)ccc2Cl)cc2cnc(NCCN(C)C)nc21")
"< 5 µM"
>>> measured_value("COn1c(=O)c(-c2cc(NC(=O)c3ccc(C(F)(F)F)c(F)c3)ccc2Cl)cc2cnc(NCCN(C)C)nc21")
"< 10 µM"
>>> measured_value("COn1c(=O)c(-c2cc(NC(=O)c3cc(Cl)nc(Cl)c3)ccc2Cl)cc2cnc(NCCN(C)C)nc21")
"< 10 µM"

We next turn to a different molecule, shown below.
# input # returns recorded IC50 (system: HT-29 [B-Raf V600E mutant]) for COn1c(=O)c(-c2cc(NC(=O)c3cc(Cl)nc(N4CCCC4)c3)ccc2Cl)cc2cnc(NCCN(C)C)nc21
# output < 5 µM

* * *

tested on: HT-29 [B-Raf V600E mutant]; experiment: Anti-proliferative activity, SRB assay, 72 hours; format: cell-based; details: Homo sapiens, read-out: CELLULAR IC50 [μM] HT-29 [B-Raf V600E mutant]
Below is a list of entries, each paired with its recorded IC50 value.

>>> measured_value("COn1c(=O)c(-c2cc(NC(=O)Nc3ccc(Oc4ccccc4)cc3)ccc2Cl)cc2cnc(NCCN(C)C)nc21")
"< 5 µM"
>>> measured_value("CCNc1cc(C(=O)Nc2ccc(Cl)c(-c3cc4cnc(NCCN(C)C)nc4n(OC)c3=O)c2)cc(Cl)n1")
"< 5 µM"
>>> measured_value("CCN(CC)c1cc(C(=O)Nc2ccc(Cl)c(-c3cc4cnc(NCCN(C)C)nc4n(OC)c3=O)c2)cc(Cl)n1")
"< 5 µM"
>>> measured_value("COn1c(=O)c(-c2cc(NC(=O)c3cc(Cl)nc(N(C)C)c3)ccc2Cl)cc2cnc(NCCN(C)C)nc21")
"< 5 µM"
>>> measured_value("COn1c(=O)c(-c2cc(NC(=O)c3cc(C(F)(F)F)cc(C(F)(F)F)c3)ccc2Cl)cc2cnc(NCCN(C)C)nc21")
"< 5 µM"
>>> measured_value("COn1c(=O)c(-c2cc(NC(=O)c3ccc(Cl)c(C(F)(F)F)c3)ccc2Cl)cc2cnc(NCCN(C)C)nc21")
"< 5 µM"

# input # returns recorded IC50 (system: HT-29 [B-Raf V600E mutant]) for COn1c(=O)c(-c2cc(NC(=O)c3ccc(Cl)cc3)ccc2Cl)cc2cnc(NCCN(C)C)nc21
# output > 10 µM

* * *

tested on: HT-29 [B-Raf V600E mutant]; assay: Anti-proliferative activity, SRB assay, 72 hours; assay type: cell-based; conditions: Homo sapiens, read-out: CELLULAR IC50 [μM] HT-29 [B-Raf V600E mutant]
Below is a list of entries, each paired with its recorded IC50 value.

>>> measured_value("COn1c(=O)c(-c2ccc(NC(=O)c3ccnc(N4CCOCC4)c3)cc2Cl)cc2cnc(NCCN(C)C)nc21 [Compound 54]")
"> 10 µM"
>>> measured_value("COn1c(=O)c(-c2cc(NC(=O)c3cc(Cl)nc(NC4CCN(C)CC4)c3)ccc2Cl)cc2cnc(NCCN(C)C)nc21 [Compound 66]")
"< 10 µM"
>>> measured_value("COn1c(=O)c(-c2cc(NC(=O)c3cc(C(F)(F)F)ccc3Cl)ccc2Cl)cc2cnc(NCCN(C)C)nc21 [Compound 29]")
"< 10 µM"

We next turn to a different molecule, shown below.
# input Value lookup for IC50; key = COn1c(=O)c(-c2cc(NC(=O)Cc3ccc(Cl)c(C(F)(F)F)c3)ccc2Cl)cc2cnc(NCCN(C)C)nc21 [Compound 16]
# output < 5 µM

* * *

biological target: B-Raf (V600E) (Homo sapiens, UniProt P15056, V600E); experiment: SelectScreen Kinase Profiling Service (Invitrogen), IC50 with or without 5 h preincubation of kinase/test compound; assay type: biochemical; conditions: without preincubation of kinase/test compound; read-out: IC50 [nM] B-Raf (V600E) w/o preincub.
Sequence (P15056 whole entry V600E): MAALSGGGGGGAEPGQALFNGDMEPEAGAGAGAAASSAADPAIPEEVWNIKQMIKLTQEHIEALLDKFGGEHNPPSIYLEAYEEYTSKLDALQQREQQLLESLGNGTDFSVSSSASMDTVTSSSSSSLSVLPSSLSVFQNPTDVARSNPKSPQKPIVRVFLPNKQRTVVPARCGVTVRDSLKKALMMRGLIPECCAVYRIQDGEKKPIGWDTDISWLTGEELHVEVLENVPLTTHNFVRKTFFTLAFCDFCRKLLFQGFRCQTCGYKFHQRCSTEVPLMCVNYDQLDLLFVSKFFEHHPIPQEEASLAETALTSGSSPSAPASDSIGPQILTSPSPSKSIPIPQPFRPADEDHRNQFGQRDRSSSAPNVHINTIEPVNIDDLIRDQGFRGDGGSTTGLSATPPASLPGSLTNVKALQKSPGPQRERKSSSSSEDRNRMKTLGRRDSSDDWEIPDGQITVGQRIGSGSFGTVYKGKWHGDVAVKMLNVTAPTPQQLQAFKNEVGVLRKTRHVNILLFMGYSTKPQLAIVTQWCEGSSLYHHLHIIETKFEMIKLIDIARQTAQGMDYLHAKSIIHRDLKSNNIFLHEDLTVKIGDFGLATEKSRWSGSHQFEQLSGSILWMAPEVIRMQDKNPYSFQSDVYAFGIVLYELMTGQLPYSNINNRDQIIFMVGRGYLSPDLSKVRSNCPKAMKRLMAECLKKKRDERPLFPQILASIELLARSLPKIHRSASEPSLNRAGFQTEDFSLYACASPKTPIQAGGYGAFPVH
measured-parameter: IC50

>>> measured_value("COn1c(=O)c(-c2cc(NC(=O)c3cc(C(C)(C)C)nn3C)ccc2Cl)cc2cnc(NCCN(C)C)nc21")
"< 100 nM"

We next turn to a different molecule, shown below.
# input Value lookup for IC50; key = COn1c(=O)c(-c2cc(NC(=O)c3cccc(C(F)(F)F)c3F)ccc2Cl)cc2cnc(NCCN(C)C)nc21
# output < 5 nM

* * *

system: HT-29 [B-Raf V600E mutant]; assay: Anti-proliferative activity, SRB assay, 72 hours; format: cell-based; conditions: Homo sapiens, read-out: CELLULAR IC50 [μM] HT-29 [B-Raf V600E mutant]
measured-parameter: IC50

Before answering, review these 2 worked examples.
>>> measured_value("COn1c(=O)c(-c2cc(NC(=O)c3cc(C(C)(C)C)nn3C)ccc2Cl)cc2cnc(NCCN(C)C)nc21")
"< 10 µM"
>>> measured_value("COn1c(=O)c(-c2cc(NC(=O)c3ccc(Oc4ccccc4)cc3)ccc2Cl)cc2cnc(NCCN(C)C)nc21")
"< 5 µM"

# input Value lookup for IC50; key = COc1ccc(C(F)(F)F)cc1C(=O)Nc1ccc(Cl)c(-c2cc3cnc(NCCN(C)C)nc3n(OC)c2=O)c1
# output < 5 µM

# input Value lookup for IC50; key = COn1c(=O)c(-c2cc(NC(=O)Nc3cccc(Cl)c3)ccc2Cl)cc2cnc(NCCN(C)C)nc21
# output < 5 µM

# input Value lookup for IC50; key = COn1c(=O)c(-c2cc(NC(=O)c3cc(C(C)(C)C)nn3-c3ccccc3)ccc2Cl)cc2cnc(NCCN(C)C)nc21
# output < 5 µM

# input Value lookup for IC50; key = COn1c(=O)c(-c2cc(NC(=O)c3ccc(C(F)(F)F)cc3)ccc2Cl)cc2cnc(NCCN(C)C)nc21
# output < 10 µM

# input Value lookup for IC50; key = COc1cc(C(F)(F)F)ccc1C(=O)Nc1ccc(-c2cc3cnc(NCCN(C)C)nc3n(OC)c2=O)c(Cl)c1
# output < 5 µM

* * *

Below is a list of entries, each paired with its recorded IC50 value.
molecular target: B-Raf (V600E) (Homo sapiens, UniProt P15056, V600E); test: SelectScreen Kinase Profiling Service (Invitrogen), IC50 with or without 5 h preincubation of kinase/test compound; assay type: biochemical; conditions: 5 h preincubation of kinase/test compound; read-out: IC50 [nM] B-Raf (V600E) 5 h preincub.

>>> measured_value("COn1c(=O)c(-c2cc(NC(=O)c3cc(C(C)(C)C)nn3C)ccc2Cl)cc2cnc(NCCN(C)C)nc21 [Compound 11]")
"< 100 nM"

# input Value lookup for IC50; key = COn1c(=O)c(-c2cc(NC(=O)c3cccc(C(F)(F)F)c3F)ccc2Cl)cc2cnc(NCCN(C)C)nc21 [Compound 39]
# output < 5 nM

* * *

molecular target: B-Raf (Homo sapiens); assay: SelectScreen Kinase Profiling Service (Invitrogen), IC50 with or without 5 h preincubation of kinase/test compound; assay type: biochemical; settings: 5 h preincubation of kinase/test compound; read-out: IC50 [nM] B-Raf 5 h preincub.
Sequence (P15056 whole entry): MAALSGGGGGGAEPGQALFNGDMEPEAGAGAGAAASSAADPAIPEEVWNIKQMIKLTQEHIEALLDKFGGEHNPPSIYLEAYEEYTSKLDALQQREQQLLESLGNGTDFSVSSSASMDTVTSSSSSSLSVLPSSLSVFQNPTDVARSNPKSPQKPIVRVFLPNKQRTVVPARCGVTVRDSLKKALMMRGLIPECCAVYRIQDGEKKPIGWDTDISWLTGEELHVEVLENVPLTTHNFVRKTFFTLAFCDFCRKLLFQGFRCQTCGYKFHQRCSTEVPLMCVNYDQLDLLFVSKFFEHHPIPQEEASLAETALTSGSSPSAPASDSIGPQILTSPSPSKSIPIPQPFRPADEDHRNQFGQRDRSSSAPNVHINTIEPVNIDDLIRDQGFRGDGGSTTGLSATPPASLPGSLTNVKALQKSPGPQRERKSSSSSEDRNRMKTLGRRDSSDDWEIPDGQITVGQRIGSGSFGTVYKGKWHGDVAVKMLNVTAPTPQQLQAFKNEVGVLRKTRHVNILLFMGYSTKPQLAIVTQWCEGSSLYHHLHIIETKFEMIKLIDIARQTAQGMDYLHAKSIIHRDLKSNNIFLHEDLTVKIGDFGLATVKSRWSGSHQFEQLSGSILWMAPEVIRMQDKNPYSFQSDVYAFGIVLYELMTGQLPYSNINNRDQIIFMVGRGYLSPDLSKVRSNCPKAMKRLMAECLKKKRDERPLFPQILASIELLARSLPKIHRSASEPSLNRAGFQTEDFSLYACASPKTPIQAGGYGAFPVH
measured-parameter: IC50

>>> measured_value("COn1c(=O)c(-c2cc(NC(=O)c3cc(C(C)(C)C)nn3C)ccc2Cl)cc2cnc(NCCN(C)C)nc21")
"< 250 nM"

We next turn to a different compound, shown below.
# input Value lookup for IC50; key = COn1c(=O)c(-c2cc(NC(=O)c3cccc(C(F)(F)F)c3F)ccc2Cl)cc2cnc(NCCN(C)C)nc21
# output < 10 nM

* * *

system: HT-29 [B-Raf V600E mutant]; test: Anti-proliferative activity, SRB assay, 72 hours; format: cell-based; details: Homo sapiens, read-out: CELLULAR IC50 [μM] HT-29 [B-Raf V600E mutant]
measured-parameter: IC50

>>> measured_value("COn1c(=O)c(-c2cc(NC(=O)Cc3cccc(C(F)(F)F)c3)ccc2Cl)cc2cnc(NCCN(C)C)nc21 [Compound 25]")
"< 5 µM"
>>> measured_value("COn1c(=O)c(-c2cc(NC(=O)c3cc(Cl)nc(N4CCCCC4)c3)ccc2Cl)cc2cnc(NCCN(C)C)nc21 [Compound 60]")
"< 5 µM"
>>> measured_value("COn1c(=O)c(-c2cc(NC(=O)c3ccnc(N4CCOCC4)c3)ccc2Cl)cc2cnc(NCCN(C)C)nc21 [Compound 26]")
"< 10 µM"
>>> measured_value("COn1c(=O)c(-c2ccc(NC(=O)c3ccc(Cl)c(OC(F)(F)F)c3)cc2Cl)cc2cnc(NCCN(C)C)nc21 [Compound 52]")
"< 5 µM"
>>> measured_value("COn1c(=O)c(-c2cc(NC(=O)c3cc(Cl)nc(NCCN(C)C)c3)ccc2Cl)cc2cnc(NCCN(C)C)nc21 [Compound 65]")
"< 10 µM"
>>> measured_value("COn1c(=O)c(-c2cc(NC(=O)c3ccc(Cl)c(OC(F)(F)F)c3)ccc2Cl)cc2cnc(NCCN(C)C)nc21 [Compound 30]")
"< 5 µM"
>>> measured_value("COn1c(=O)c(-c2cc(NC(=O)c3cc(Cl)nc(N4CCOCC4)c3)ccc2Cl)cc2cnc(NCCN(C)C)nc21 [Compound 61]")
"< 5 µM"
>>> measured_value("COn1c(=O)c(-c2cc(NC(=O)c3cc(Cl)nc(N4CCN(C)CC4)c3)ccc2Cl)cc2cnc(NCCN(C)C)nc21 [Compound 62]")
"< 5 µM"
>>> measured_value("COn1c(=O)c(-c2cc(NC(=O)c3cc4ccccc4n3C)ccc2Cl)cc2cnc(NCCN(C)C)nc21 [Compound 13]")
"< 10 µM"
>>> measured_value("COc1cc(C(F)(F)F)ccc1C(=O)Nc1ccc(Cl)c(-c2cc3cnc(NCCN(C)C)nc3n(OC)c2=O)c1 [Compound 15]")
"< 5 µM"

# input Value lookup for IC50; key = COn1c(=O)c(-c2cc(NC(=O)Nc3cc(C(F)(F)F)ccc3F)ccc2Cl)cc2cnc(NCCN(C)C)nc21 [Compound 49]
# output < 5 µM

# input Value lookup for IC50; key = COn1c(=O)c(-c2ccc(NC(=O)Cc3ccc(Cl)c(C(F)(F)F)c3)cc2Cl)cc2cnc(NCCN(C)C)nc21 [Compound 57]
# output < 10 µM

# input Value lookup for IC50; key = COc1ccc(C(=O)Nc2ccc(Cl)c(-c3cc4cnc(NCCN(C)C)nc4n(OC)c3=O)c2)cc1Cl [Compound 21]
# output < 5 µM

# input Value lookup for IC50; key = COn1c(=O)c(-c2cc(NC(=O)c3ccc(OCc4cccc(F)c4)c(Cl)c3)ccc2Cl)cc2cnc(NCCN(C)C)nc21 [Compound 32]
# output < 5 µM

# input Value lookup for IC50; key = COn1c(=O)c(-c2cc(NC(=O)c3cccc(Cl)c3)ccc2Cl)cc2cnc(NCCN(C)C)nc21 [Compound 18]
# output < 10 µM

# input Value lookup for IC50; key = COn1c(=O)c(-c2cc(NC(=O)Nc3cc(C(F)(F)F)cc(C(F)(F)F)c3)ccc2Cl)cc2cnc(NCCN(C)C)nc21 [Compound 50]
# output < 5 µM

# input Value lookup for IC50; key = COn1c(=O)c(-c2cc(NC(=O)c3cccc(C(F)(F)F)c3F)ccc2Cl)cc2cnc(NCCN(C)C)nc21 [Compound 39]
# output < 5 µM

# input Value lookup for IC50; key = COn1c(=O)c(-c2cc(NC(=O)c3ccc(C(F)(F)F)cc3F)ccc2Cl)cc2cnc(NCCN(C)C)nc21 [Compound 20]
# output > 10 µM

# input Value lookup for IC50; key = COn1c(=O)c(-c2cc(NC(=O)c3cc(F)cc(C(F)(F)F)c3)ccc2Cl)cc2cnc(NCCN(C)C)nc21 [Compound 28]
# output < 5 µM

# input Value lookup for IC50; key = COn1c(=O)c(-c2cc(NC(=O)Nc3ccc(F)c(C(F)(F)F)c3)ccc2Cl)cc2cnc(NCCN(C)C)nc21 [Compound 42]
# output < 5 µM

# input Value lookup for IC50; key = COn1c(=O)c(-c2ccc(NC(=O)c3ccc(OCc4cccc(F)c4)c(Cl)c3)cc2Cl)cc2cnc(NCCN(C)C)nc21 [Compound 55]
# output < 5 µM

src = patent US8232283B2
